# PROTOCOL_TEXT: Apparent permeability from basolateral to apical side of human Caco-2 cells
# Type: ADME, cell-based
REPORTED_ENDPOINT: Papp B→A

CC(C)(Cc1cccc(CC(=O)NCc2cccc(-c3ccc(O)cc3)c2)c1)NC[C@H](O)c1ccc(O)c(NS(C)(=O)=O)c1 | 13 ×10⁻⁶ cm/s

###

logD overview
# PROTOCOL_TEXT: Distribution coefficient, log D of the compound
# Type: physicochemical
# DETAILS: octanol/water
REPORTED_ENDPOINT: logD

CC(C)(Cc1cccc(CC(=O)NCc2cc(Cl)c(O)c(Cl)c2)c1)NC[C@H](O)c1ccc(O)c(NS(C)(=O)=O)c1 | 0.8
CC(C)(Cc1cccc(CC(=O)NCc2ccc(Cl)c(Cl)c2)c1)NC[C@H](O)c1ccc(O)c(NS(C)(=O)=O)c1 | 2.4
Cc1ccc(CNC(=O)Cc2cccc(C[C@@H](C)NC[C@H](O)c3ccc(O)c(NS(C)(=O)=O)c3)c2)cc1C | 2
C[C@H](Cc1cccc(CC(=O)NCc2ccccc2)c1)NC[C@H](O)c1ccc(O)c(NS(C)(=O)=O)c1 | 1
COc1ccccc1CNC(=O)Cc1cccc(C[C@@H](C)NC[C@H](O)c2ccc(O)c(NS(C)(=O)=O)c2)c1 | 1.2
CC(C)(Cc1cccc(CC(=O)NCc2cc(Cl)cc(Cl)c2O)c1)NC[C@H](O)c1ccc(O)c(NS(C)(=O)=O)c1 | 2
CCN(Cc1ccc(O)cc1Cl)C(=O)Cc1cccc(CC(C)(C)NC[C@H](O)c2ccc(O)c(NS(C)(=O)=O)c2)c1 | 1.6

###

# ASSAY_TARGET: Beta-2 adrenergic receptor (Homo sapiens, UniProt P07550)
# Sequence (P07550 whole entry): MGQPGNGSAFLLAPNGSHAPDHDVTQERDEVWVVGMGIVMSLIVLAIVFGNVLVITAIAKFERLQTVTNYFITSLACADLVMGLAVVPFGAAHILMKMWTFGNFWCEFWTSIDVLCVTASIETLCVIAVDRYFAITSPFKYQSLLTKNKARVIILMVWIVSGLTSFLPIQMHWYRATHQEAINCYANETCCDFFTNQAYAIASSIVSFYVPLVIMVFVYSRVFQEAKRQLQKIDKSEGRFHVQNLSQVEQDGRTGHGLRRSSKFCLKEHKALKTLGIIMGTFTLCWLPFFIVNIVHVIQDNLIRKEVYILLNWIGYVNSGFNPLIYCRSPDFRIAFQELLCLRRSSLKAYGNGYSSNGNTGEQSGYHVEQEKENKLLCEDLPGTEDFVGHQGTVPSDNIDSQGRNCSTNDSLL
# PROTOCOL_TEXT: Agonist activity at human recombinant beta2 adrenergic receptor expressed in CHO cells assessed as elevation in cAMP level after 1 hr by flashplate method
pEC50: −log10 of the molar value.
Give satisfied when the value for pEC50 is at least 10. Give not satisfied when it is less.

C[C@H](Cc1cccc(CC(=O)NCc2ccccc2)c1)NC[C@H](O)c1ccc(O)c(NS(C)(=O)=O)c1 | satisfied
CCN(Cc1ccc(O)cc1Cl)C(=O)Cc1cccc(CC(C)(C)NC[C@H](O)c2ccc(O)c(NS(C)(=O)=O)c2)c1 | not satisfied
Cc1cc(O)cc(C)c1CNC(=O)Cc1cccc(CC(C)(C)NC[C@H](O)c2ccc(O)c(NS(C)(=O)=O)c2)c1 | satisfied
C[C@H](Cc1cccc(CC(=O)NCCCc2ccccc2)c1)NC[C@H](O)c1ccc(O)c(NS(C)(=O)=O)c1 | satisfied
CC(C)(Cc1cccc(CC(=O)NCc2ccccc2)c1)NC[C@H](O)c1ccc(O)c(NS(C)(=O)=O)c1 | satisfied
CCOc1ccccc1CNC(=O)Cc1cccc(C[C@@H](C)NC[C@H](O)c2ccc(O)c(NS(C)(=O)=O)c2)c1 | satisfied
COc1ccccc1CNC(=O)Cc1cccc(C[C@@H](C)NC[C@H](O)c2ccc(O)c(NS(C)(=O)=O)c2)c1 | satisfied
CC(C)(Cc1cccc(CC(=O)NCc2ccc(O)cc2Cl)c1)NC[C@H](O)c1ccc(O)c(NS(C)(=O)=O)c1 | satisfied
C[C@H](Cc1cccc(CC(=O)NCCc2ccccc2)c1)NC[C@H](O)c1ccc(O)c(NS(C)(=O)=O)c1 | satisfied
CC(C)(Cc1cccc(CC(=O)NCc2ccc3cc(O)ccc3c2)c1)NC[C@H](O)c1ccc(O)c(NS(C)(=O)=O)c1 | not satisfied
C[C@H](Cc1cccc(CC(=O)NCC2CCCCC2)c1)NC[C@H](O)c1ccc(O)c(NS(C)(=O)=O)c1 | satisfied

###

Items are presented alongside their recorded logD.
# PROTOCOL_TEXT: Distribution coefficient, log D of the compound
# Assay type: physicochemical
# DETAILS: octanol/water
REPORTED_ENDPOINT: logD

Cc1cc(O)cc(C)c1CNC(=O)Cc1cccc(CC(C)(C)NC[C@H](O)c2ccc(O)c(NS(C)(=O)=O)c2)c1 | 1.1
CC(C)(Cc1cccc(CC(=O)NCc2ccc(O)cc2Cl)c1)NC[C@H](O)c1ccc(O)c(NS(C)(=O)=O)c1 | 1.2
CCOc1ccccc1CNC(=O)Cc1cccc(C[C@@H](C)NC[C@H](O)c2ccc(O)c(NS(C)(=O)=O)c2)c1 | 1.6
CC(C)(Cc1cccc(CC(=O)NCc2cc(Cl)ccc2O)c1)NC[C@H](O)c1ccc(O)c(NS(C)(=O)=O)c1 | 1.6
CC(C)(Cc1cccc(CC(=O)NCc2cccc(-c3ccc(O)cc3)c2)c1)NC[C@H](O)c1ccc(O)c(NS(C)(=O)=O)c1 [PF-00610355] | 1.9
CC(C)(Cc1cccc(CC(=O)NCc2ccc3cc(O)ccc3c2)c1)NC[C@H](O)c1ccc(O)c(NS(C)(=O)=O)c1 | 1.3
CC(C)(Cc1ccccc1)NCC(O)c1ccc(O)c(NS(C)(=O)=O)c1 (stereo not drawn) [ZINTEROL] | 0.6
C[C@H](Cc1cccc(CC(=O)NCCCc2ccccc2)c1)NC[C@H](O)c1ccc(O)c(NS(C)(=O)=O)c1 | 1.7

###

# PROTOCOL_TEXT: Half life in iv dosed rat
# Assay type: ADME, organism-based
# DETAILS: in vivo
REPORTED_ENDPOINT: half-life

CC(C)(Cc1cccc(CC(=O)NCc2cccc(-c3ccc(O)cc3)c2)c1)NC[C@H](O)c1ccc(O)c(NS(C)(=O)=O)c1 | 210 min

###

# PROTOCOL_TEXT: Apparent permeability from apical to basolateral side of human Caco-2 cells
# Type: ADME, cell-based
REPORTED_ENDPOINT: Papp A→B

CC(C)(Cc1cccc(CC(=O)NCc2cccc(-c3ccc(O)cc3)c2)c1)NC[C@H](O)c1ccc(O)c(NS(C)(=O)=O)c1 | < 1 ×10⁻⁶ cm/s

###

# Organism: Homo sapiens
# PROTOCOL_TEXT: Selectivity ratio of EC50 for human recombinant beta-1 adrenergic receptor to EC50 for human recombinant beta2 adrenergic receptor
The entries below come with measured Ratio EC50 values attached.
REPORTED_ENDPOINT: Ratio EC50

C[C@H](Cc1cccc(CC(=O)NCc2ccc(Cl)c(Cl)c2)c1)NC[C@H](O)c1ccc(O)c(CO)c1 | 5300
CC(C)(Cc1cccc(CC(=O)NCc2cc(Cl)cc(Cl)c2O)c1)NC[C@H](O)c1ccc(O)c(NS(C)(=O)=O)c1 | 560
CC(C)(Cc1cccc(CC(=O)NCc2ccc(Cl)c(Cl)c2)c1)NC[C@H](O)c1ccc(O)c(NS(C)(=O)=O)c1 | 1700
CC(C)(Cc1cccc(CC(=O)NCc2cccc(-c3ccc(O)cc3)c2)c1)NC[C@H](O)c1ccc(O)c(NS(C)(=O)=O)c1 [PF-00610355] | 220
CC(C)(Cc1cccc(CC(=O)NCc2ccccc2)c1)NC[C@H](O)c1ccc(O)c(NS(C)(=O)=O)c1 | 7500
CC(C)(Cc1cccc(CC(=O)NCc2cc(Cl)ccc2O)c1)NC[C@H](O)c1ccc(O)c(NS(C)(=O)=O)c1 | 7000
CC(C)(Cc1cccc(CC(=O)NCc2ccc3cc(O)ccc3c2)c1)NC[C@H](O)c1ccc(O)c(NS(C)(=O)=O)c1 | 730
Cc1cc(O)cc(C)c1CNC(=O)Cc1cccc(CC(C)(C)NC[C@H](O)c2ccc(O)c(NS(C)(=O)=O)c2)c1 | 3700
C[C@H](Cc1cccc(CC(=O)NCC2CCCCC2)c1)NC[C@H](O)c1ccc(O)c(NS(C)(=O)=O)c1 | 3100
COc1ccccc1CNC(=O)Cc1cccc(C[C@@H](C)NC[C@H](O)c2ccc(O)c(NS(C)(=O)=O)c2)c1 | 5600
CC(C)(Cc1cccc(CC(=O)NCc2cc(Cl)c(O)c(Cl)c2)c1)NC[C@H](O)c1ccc(O)c(NS(C)(=O)=O)c1 | 1600
CCN(Cc1ccc(O)cc1Cl)C(=O)Cc1cccc(CC(C)(C)NC[C@H](O)c2ccc(O)c(NS(C)(=O)=O)c2)c1 | 210
C[C@H](Cc1cccc(CC(=O)NCCc2ccccc2)c1)NC[C@H](O)c1ccc(O)c(NS(C)(=O)=O)c1 | 1800
C[C@H](Cc1cccc(CC(=O)NCc2ccccc2)c1)NC[C@H](O)c1ccc(O)c(NS(C)(=O)=O)c1 | 16000
CCOc1ccccc1CNC(=O)Cc1cccc(C[C@@H](C)NC[C@H](O)c2ccc(O)c(NS(C)(=O)=O)c2)c1 | 3300
C[C@H](Cc1cccc(CC(=O)NCCCc2ccccc2)c1)NC[C@H](O)c1ccc(O)c(NS(C)(=O)=O)c1 | 3400
C[C@H](Cc1cccc(CC(=O)NC23CC4CC(CC(C4)C2)C3)c1)NC[C@H](O)c1ccc(O)c(CO)c1 | 1300
CC(C)(Cc1cccc(CC(=O)NCc2ccc(-c3ccc(O)cc3)cc2)c1)NC[C@H](O)c1ccc(O)c(NS(C)(=O)=O)c1 | 1300
Cc1ccc(CNC(=O)Cc2cccc(C[C@@H](C)NC[C@H](O)c3ccc(O)c(NS(C)(=O)=O)c3)c2)cc1C | 3700
CC(C)(Cc1cccc(CC(=O)NCc2ccc(O)cc2Cl)c1)NC[C@H](O)c1ccc(O)c(NS(C)(=O)=O)c1 | 7300

// provenance: ChEMBL document CHEMBL1240530
